molecular target: D(1A) dopamine receptor (Homo sapiens) (UniProt P21728); assay: NVS_GPCR_hDRD1: NovaScreen (NVS) G Protein-Coupled Receptor Assay for human Dopamine Receptor D1 (DRD1) (AID 2283269)
Sequence (P21728 whole entry, looked up): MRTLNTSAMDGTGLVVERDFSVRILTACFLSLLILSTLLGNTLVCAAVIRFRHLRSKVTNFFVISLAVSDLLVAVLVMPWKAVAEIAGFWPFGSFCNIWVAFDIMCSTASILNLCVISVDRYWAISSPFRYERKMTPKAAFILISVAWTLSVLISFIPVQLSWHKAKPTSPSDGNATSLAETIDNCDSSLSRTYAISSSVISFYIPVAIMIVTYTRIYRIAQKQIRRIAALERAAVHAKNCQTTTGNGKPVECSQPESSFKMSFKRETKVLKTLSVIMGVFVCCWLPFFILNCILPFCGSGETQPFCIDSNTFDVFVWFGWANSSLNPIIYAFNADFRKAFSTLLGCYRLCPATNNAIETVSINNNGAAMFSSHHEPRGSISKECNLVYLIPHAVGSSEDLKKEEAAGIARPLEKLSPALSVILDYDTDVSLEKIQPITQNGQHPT
Results filed as inconclusive are left out. Calls of active or inactive are those of the source. How the source made its calls: active means hit-call score of the fitted dose curve at least 0.9, where 1 is the maximum; inconclusive means response in the unintended direction; inactive means score below 0.9.
Tick one outcome: active, inactive

- MOLECULE: "Oc1c(I)cc(I)cc1I"
  TESTED_ON: "D(1A) dopamine receptor (Homo sapiens) (UniProt P21728)"
  ASSIGNED_LABEL: "inactive"
- MOLECULE: "Nc1cccc2ccccc12"
  TESTED_ON: "D(1A) dopamine receptor (Homo sapiens) (UniProt P21728)"
  ASSIGNED_LABEL: "active"
- MOLECULE: "O=C1C2(Cl)C3(Cl)C4(Cl)C(Cl)(Cl)C5(Cl)C3(Cl)C1(Cl)C5(Cl)C24Cl (stereo unspecified)"
  TESTED_ON: "D(1A) dopamine receptor (Homo sapiens) (UniProt P21728)"
  ASSIGNED_LABEL: "inactive"

Query :: Could you check what this test reported for `O=C(O)C(F)(F)C(F)(F)C(F)(F)C(F)(F)C(F)(F)C(F)(F)C(F)(F)C(F)(F)C(F)(F)C(F)(F)F` ?
Result :: inactive

Query :: Outcome? `O=C(c1ccccc1)C(Cl)Cl`
Result :: inactive

Query :: Short answer needed: outcome of this test for `C=C(C)C(=O)[O][Sn]([CH2]CCC)([CH2]CCC)[CH2]CCC` ?
Result :: active

###

read-out: Low-density lipoprotein receptor (LDLR), LDLR (gene 3949); assay: BSK_CASM3C_LDLR: BioMAP Diversity Plus: CASM3C Assay for Low-density lipoprotein receptor (LDLR) Biomarker Activity (AID 2283045); conditions: primary human coronary artery smooth muscle cells; actives raise or lower the signal;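 further: LDLR protein level on the cell surface quantified by ELISA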
The source made the active and inactive calls. How the source made its calls: active means hit-call score of the fitted dose curve at least 0.9, where 1 is the maximum; inactive means score below 0.9.
Please state which outcome applies, choosing from active, inactive

- COMPOUND: "Cn1sc(Cl)cc1=O"
  ASSIGNED_LABEL: "inactive"
- COMPOUND: "CCOP(=S)(OCC)Oc1ccc(S(C)=O)cc1 (stereo not drawn)"
  ASSIGNED_LABEL: "inactive"
- COMPOUND: "CC(C)CCCCCCOC(=O)c1ccccc1C(=O)OCCCCCCC(C)C"
  ASSIGNED_LABEL: "inactive"
- COMPOUND: "CCC(C)(C)c1ccc(O)c(C(C)(C)CC)c1"
  ASSIGNED_LABEL: "active"

Query :: Short answer needed: outcome of this test for `COP(=S)(OC)Oc1ccc(Sc2ccc(OP(=S)(OC)OC)cc2)cc1` ?
Result :: inactive

Query :: Test call, this compound: `CC(=O)[O][Hg][c]1ccccc1`
Result :: active

Query :: What classification did `Oc1c(I)cc(I)cc1I` end up with in this test?
Result :: inactive

Query :: What classification did `CCNc1nc(NC(C)(C)C)nc(SC)n1` end up with in this test?
Result :: inactive

Query :: So what was the verdict on CC(=O)C(Cl)C(=O)N(C)C (stereo not drawn) in this test?
Result :: inactive

###

assay: CCTE_Shafer_MEA_dev_spike_duration_mean: CCTE's Neural Network Formation Assay for Mean Spike Duration, Shafer Lab (AID 2284051);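 further: mean network spike duration pooled as area under curve over DIV 5 to 12 recordings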
Activity calls are given as the source filed them. How the source made its calls: active means hit-call score of the fitted dose curve at least 0.9, where 1 is the maximum; inactive means score below 0.9.
Mark one answer only. Choices: active, inactive

A selection of reference data follows.
- COMPOUND: "CCC(=O)C(CC(C)N(C)C)(c1ccccc1)c1ccccc1 (centres undefined)"
  ASSIGNED_LABEL: "active"
- COMPOUND: "O=C1C2(Cl)C3(Cl)C4(Cl)C(Cl)(Cl)C5(Cl)C3(Cl)C1(Cl)C5(Cl)C24Cl (centres undefined)"
  ASSIGNED_LABEL: "active"
- COMPOUND: "O=C(O)C(F)(F)C(F)(F)C(F)(F)C(F)(F)C(F)(F)C(F)(F)F"
  ASSIGNED_LABEL: "inactive"

Query :: Please state the recorded outcome for this compound: `CC(C)(C)c1cc(O)ccc1O`
Result :: active

###

read-out: Interleukin-8 (IL8), CXCL8 (gene 3576); experiment: BSK_CASM3C_IL8: BioMAP Diversity Plus: CASM3C Assay for Interleukin-8 (IL8) Biomarker Activity (AID 2283042); settings: primary human coronary artery smooth muscle cells; actives raise or lower the signal;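 further: IL-8 protein level quantified by ELISA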
The source made the active and inactive calls. The calls were made as follows: active = hit-call score of the fitted dose curve at least 0.9, where 1 is the maximum; inactive = score below 0.9.
Thanks in advance; please answer with one of these: active, inactive

- MOLECULE: "COc1cc(-c2ccc(N)c(OC)c2)ccc1N"
  ASSIGNED_LABEL: "inactive"
- MOLECULE: "O=C(O)C(F)(F)C(F)(F)C(F)(F)C(F)(F)C(F)(F)C(F)(F)C(F)(F)C(F)(F)C(F)(F)C(F)(F)F"
  ASSIGNED_LABEL: "inactive"
- MOLECULE: "CC(C)(c1ccccc1)c1ccc(O)c(C(C)(C)c2ccccc2)c1"
  ASSIGNED_LABEL: "active"
- MOLECULE: "Cc1ccccc1N"
  ASSIGNED_LABEL: "inactive"
- MOLECULE: "C=CC(=O)OCCCCCC(C)C"
  ASSIGNED_LABEL: "inactive"

Query :: Fill in: this test's call for CCSC(C)CC1CC(=O)C(C(CC)=NOC/C=C/Cl)=C(O)C1 (stereo not drawn) is ___
Result :: inactive

Query :: Recorded test outcome, item `O=S(=O)(c1ccc(Cl)cc1)c1ccc(Cl)cc1`
Result :: inactive

Query :: I'd appreciate the recorded outcome for CCCCC(CC)CO[N+](=O)[O-] (stereo not drawn) from this test.
Result :: inactive

Query :: Test call, this molecule: CC(=O)C(Cl)C(=O)N(C)C (stereo not drawn)
Result :: inactive

Query :: Answer briefly: the call reported for `CCOP(=S)(OCC)SCSP(=S)(OCC)OCC` in this assay.
Result :: inactive

Query :: Each molecule tested received a call. Report the one for `OCc1ccco1` .
Result :: inactive

Query :: State the result this test recorded for `O=C(O)C(Cl)(Cl)Cl` .
Result :: inactive

Query :: Just curious, what result did `O=C(Nc1ccc2[nH]ccc2c1)c1cc2cc(F)ccc2n1Cc1cccc(F)c1` get here?
Result :: active

###

read-out: Interleukin-6 (IL6), IL6 (gene 3569); experiment: BSK_CASM3C_IL6: BioMAP Diversity Plus: CASM3C Assay for Interleukin-6 (IL6) Biomarker Activity for (AID 2283040); settings: primary human coronary artery smooth muscle cells; actives raise or lower the signal
Activity calls are given as the source filed them. Rule for the calls: active = hit-call score of the fitted dose curve at least 0.9, where 1 is the maximum; inactive = score below 0.9.
Allowed answers: class 1 for active, class 0 for inactive

- COMPOUND: "CC(C)(OO)c1ccccc1"
  ASSIGNED_LABEL: "class 0"
- COMPOUND: "CC12CC1(C)C(=O)N(c1cc(Cl)cc(Cl)c1)C2=O (stereo unspecified)"
  ASSIGNED_LABEL: "class 0"
- COMPOUND: "O=c1[nH]c(=O)[nH]c(=O)[nH]1"
  ASSIGNED_LABEL: "class 0"
- COMPOUND: "COP(=S)(OC)Oc1ccc(Sc2ccc(OP(=S)(OC)OC)cc2)cc1"
  ASSIGNED_LABEL: "class 0"
- COMPOUND: "CCNc1nc(NC(C)(C)C)nc(SC)n1"
  ASSIGNED_LABEL: "class 0"
- COMPOUND: "O=C(Nc1ccc2[nH]ccc2c1)c1cc2cc(F)ccc2n1Cc1cccc(F)c1"
  ASSIGNED_LABEL: "class 1"
- COMPOUND: "COC(=O)Cc1ccccc1"
  ASSIGNED_LABEL: "class 0"
- COMPOUND: "Nc1cccc2ccccc12"
  ASSIGNED_LABEL: "class 0"

Query :: Outcome logged for `ClCC(Cl)CCl` in this assay:
Result :: class 0

Query :: Outcome logged for `COP(=S)(OC)Oc1c(Cl)cc(C)cc1Cl` in this assay:
Result :: class 0

Query :: Given `O=[N+]([O-])c1ccc(O)c([N+](=O)[O-])c1` , state the outcome it received in this test.
Result :: class 0

Query :: So what was the verdict on `C=CC(=O)OCCCCCC(C)C` in this test?
Result :: class 0

Query :: GET /call?item= `CC(C)CCCCCCOC(=O)c1ccccc1C(=O)OCCCCCCC(C)C` returns the recorded outcome of this test.
Result :: class 0

Query :: Would you mind telling me which call this test gave `Nc1ncc([N+](=O)[O-])s1` ?
Result :: class 0

Query :: Hi team, can someone confirm the assay call for `CCCCCCCCC(=O)NCc1ccc(O)c(OC)c1` ?
Result :: class 0

Query :: Name the outcome recorded for `CC(C)(C)CC(C)(C)c1ccc(O)cc1` in the assay.
Result :: class 1

###

molecular target: Retinoic acid receptor RXR-alpha (Homo sapiens); assay: ATG_RXRa_TRANS: Attagene TRANS-FACTORIAL HepG2 Assay for human Retinoid X Receptor alpha (RXRa) (AID 2283012)
Records with an inconclusive call do not appear. Calls of active or inactive are those of the source. How the source made its calls: active means hit-call score of the fitted dose curve at least 0.9, where 1 is the maximum; inconclusive means response in the unintended direction; inactive means score below 0.9.
API: response.call in y (active), n (inactive)

- COMPOUND: "O=[N+]([O-])c1ccc(O)c([N+](=O)[O-])c1"
  ASSIGNED_LABEL: "n"

Query :: Recorded test outcome, item `CCCCP(CCCC)CCCC`
Result :: n

Query :: // return assay outcome for `CCCCOCCOC(C)=O`
Result :: n

Query :: Kindly provide the recorded test outcome for the following compound: `NNC(=S)NN`
Result :: n
